System: SK-OV-3
method description: NCI tumour cell line growth inhibition, 48 h
Calls of active or inactive are those of the source. Rule as the data show it: active = GI50 up to about 1.1 µM and inactive = higher. Positions of bridges follow the written chain, without caps; N, C: chain ends. Non-standard residues stand in square brackets, D forms with d. Residues, ends and D or L forms follow the SMILES beside them. *: point of attachment. PhAc = O=C(Cc1ccccc1)*
Respond only with the outcome that fits, drawn from active, inactive

Below are worked cases with known answers.
compound="NC1CCC[C@H]1O (stereo partly specified)" study_target=SK-OV-3 class_label=inactive
compound=Cc1cc(=O)n(-c2cc3cccccc-3n2)[nH]1 study_target=SK-OV-3 class_label=inactive
compound=CN(C)c1ccc(/C=C2\C[C@H]3[C@@H]4CCc5cc(O)ccc5[C@H]4CC[C@]3(C)C2=O)cc1 study_target=SK-OV-3 class_label=inactive
compound="O=C1CC(c2ccccc2)n2c(nc3ccccc32)N1 (stereo unspecified)" study_target=SK-OV-3 class_label=inactive
compound="OCC12C3C4C1C1C2C3C41CO (stereo unspecified)" study_target=SK-OV-3 class_label=inactive

Asked: What classification did Cc1cn(C2CC(O)C(Cn3nncc3Cn3ccc(=O)[nH]c3=O)O2)c(=O)[nH]c1=O (stereo unspecified) end up with in this test?
Given back: inactive

Asked: How about `CC(=O)Nc1ccc(/C=C/[N+](=O)[O-])cc1` ?
Given back: inactive

Asked: And what about the compound COc1cc2cc(C(=O)N3CC(CCl)c4ccc(NCCN)cc43)[nH]c2c(OC)c1OC (stereo unspecified) ?
Given back: active

Asked: Now consider CC(C)(C)N(Cc1ccccc1)C(=O)/C=C\[S+]([O-])c1ccccc1 (stereo unspecified) .
Given back: inactive

Asked: Now the compound `COc1ccc(-c2nc3ncccn3c2-c2ccc(SC)cc2)cc1`
Given back: active

Asked: What about this compound? `COC(=O)CCC(=O)Nc1cccc(C(F)(F)F)c1`
Given back: inactive

Asked: And what about the compound O=C(Cc1ccccc1)N[C@@H]1COC(=O)[C@@H]2CCCN2C(=O)[C@@H]2CCCN2C1=O (PhAc-[dS]-Pro-Pro; ester 1-C) ?
Given back: inactive

Asked: Further, for `CCCCCCCC(=O)NS(=O)(=O)c1ccccc1` ?
Given back: inactive

Asked: Cool, now COc1cc(C(C)O)c[n+](Cc2ccccc2)c1 (stereo unspecified)
Given back: inactive

----------
Tested on: NCI-H522
method description: NCI tumour cell line growth inhibition, 48 h
The source made the active and inactive calls. No stated cut-off is given here; in the data, active = GI50 up to about 1.1 µM and inactive = higher.
Select the matching outcome among active, inactive

Here's what some known entries look like.
compound=O=S(=O)(O)c1cc(/N=N/c2c(O)ccc3ccccc23)ccc1/C=C/c1ccc(/N=N/c2c(O)ccc3ccccc23)cc1S(=O)(=O)O class_label=inactive
compound="C=CC(Cl)(CBr)CCC(Br)=C(C)C (stereo not given)" class_label=inactive
compound="COc1cc(S(=O)(=O)Nc2ccc(-c3csc(N4C(=O)CSC4c4cccc(Oc5ccccc5)c4)n3)cc2)ccc1Cl (stereo not given)" class_label=inactive
compound=CC(=O)Nc1ccc(/C=C/[N+](=O)[O-])cc1 class_label=active

As a next step, examine the compound that follows.
Asked: How did this test come out for CC(C)[C@@H]1ON1C(C)c1ccccc1 (stereo not given in full) ?
Given back: inactive

----------
Test system: MDA-MB-231
method description: NCI tumour cell line growth inhibition, 48 h
Calls of active or inactive are those of the source. Cut-off read from the data, not from the text of the source: active = GI50 up to about 1.1 µM and inactive = higher.
measure: GI50

Asked: GET /values?readout=GI50&item= `CC/C(Cl)=N\OC(=O)Nc1ccc(OC)c(C)c1`
Given back: 30.6 µM (inactive)

Every entry's value here was drawn from ChEMBL document CHEMBL1201862.
